- Test system: MCF-7 (human breast cancer cells)
- Method summary: MTT inhibition of tumor cell growth, MCF-7
- Format: cell-based
- Condition parameters: Homo sapiens, MCF7, 48 h, Table 2, derivatives having potential Michael reaction acceptor
pIC50: −log10 of the molar value.
Outcome measure: pIC50

molecule="C=C1C(=O)[C@]23CC[C@H]1CC2[C@@]12CCC[C@@](C)(COC1=O)C2[C@H](SC)C3=O (some centres unmarked)" assayed_system="MCF-7 (human breast cancer cells)" endpoint_value=5.32
molecule="C=C1C(=O)C23CC[C@H]1CC2[C@]1(COC(C)=O)CCC[C@@](C)(COC(C)=O)C1[C@H](CO)C3=O (some centres unmarked)" assayed_system="MCF-7 (human breast cancer cells)" endpoint_value=5.53
molecule="C=C1C(=O)[C@]23CC[C@H]1CC2[C@@]12CCC[C@@](C)(COC1)C2[C@H](COS(C)(=O)=O)C3=O (some centres unmarked)" assayed_system="MCF-7 (human breast cancer cells)" endpoint_value=5.69
molecule="C=C1C(=O)C23CC[C@H]1CC2[C@]1(COC(C)=O)CCC[C@@](C)(COC(C)=O)C1[C@H](COS(C)(=O)=O)C3=O (some centres unmarked)" assayed_system="MCF-7 (human breast cancer cells)" endpoint_value=4.89
molecule="C=C1C(=O)[C@@]23CC[C@@H](CC2[C@@]24CCC[C@@](C)(COC2=O)C14)C(=C)[C@@H]3O (some centres unmarked)" assayed_system="MCF-7 (human breast cancer cells)" endpoint_value=5.51
molecule="C=C1C(=O)[C@]23CC[C@H]1CC2[C@@]12CCC[C@@](C)(COC1=O)C2[C@H](Cl)C3=O (some centres unmarked)" assayed_system="MCF-7 (human breast cancer cells)" endpoint_value=5.58
molecule="C=C1C(=O)[C@]23CC[C@H]1CC2[C@@]12CCC[C@@](C)(COC1=O)C2[C@H](CO)C3=O (some centres unmarked)" assayed_system="MCF-7 (human breast cancer cells)" endpoint_value=5.40
molecule="C=C1C(=O)[C@]23CC[C@H]1CC2[C@@]12CCC[C@@](C)(COC1=O)C2C[C@H]3O (some centres unmarked)" assayed_system="MCF-7 (human breast cancer cells)" endpoint_value=5.49

---

- Test system: SW-480 (human colon cancer cells)
- Method summary: MTT inhibition of tumor cell growth, SW-480
- Type: cell-based
- Condition parameters: Table 5, derivatives having double Michael reaction acceptor, 48 h, read-out: IC50 SW-480
pIC50: −log10 of the molar value.
Outcome measure: pIC50

compound="[NH2][Pt]([NH2])([Cl])[Cl] [cis-DDP, reference compound]" endpoint_value=4.78

---

- System: SW-480 (human colon cancer cells)
- Method summary: MTT inhibition of tumor cell growth, SW-480
- Assay type: cell-based
- Condition parameters: Homo sapiens, SW480, 48 h, Table 7 (first), alkaloid derivatives, read-out: IC50 SW-480
pIC50: −log10 of the molar value.
Outcome measure: pIC50

compound="C=C1C(=O)[C@]23CC[C@H]1CC2[C@@]12CCC[C@@](C)(C(=O)N4CCO[C@H]41)C2C[C@H]3O (stereo partly shown) [Compound 78]" assayed_system="SW-480 (human colon cancer cells)" outcome_measure=pIC50 censoring_sign== endpoint_value=5.55
compound="C=C1C(=O)[C@]23CC[C@H]1CC2[C@@]12CCC[C@@](C)(COC1=O)C2C[C@H]3O (stereo partly shown) [Compound 1, 15-oxospiramilactone]" assayed_system="SW-480 (human colon cancer cells)" outcome_measure=pIC50 censoring_sign== endpoint_value=5.45
compound="CC(=O)O[C@H]1C(=O)[C@@]2(C)[C@H]([C@H](OC(=O)c3ccccc3)[C@]3(O)C[C@H](OC(=O)[C@H](O)[C@@H](NC(=O)c4ccccc4)c4ccccc4)C(C)=C1C3(C)C)[C@]1(OC(C)=O)CO[C@@H]1C[C@@H]2O [TAXOL, reference compound]" assayed_system="SW-480 (human colon cancer cells)" outcome_measure=pIC50 censoring_sign=> endpoint_value=8.10
compound="C=C1C(=O)[C@@]23CC[C@@H](CC2[C@@]24CCC[C@@](C)(CN(CCO[Si](C)(C)C(C)(C)C)C2)C14)C(=C)C3=O (stereo partly shown) [Compound 92]" assayed_system="SW-480 (human colon cancer cells)" outcome_measure=pIC50 censoring_sign== endpoint_value=5.56

---

- System: Wnt signaling pathway (Top-Flash reporter gene)
- Method summary: Top-Flash Wnt reporter gene assay in HEK293T cells with Wnt3a conditioned medium
- Assay type: cell-based
- Condition parameters: Homo sapiens, HEK-293T, 6 h, Table 9; HEK293T, Wnt3a conditioned medium, 6 h; read-out: IC50(μM), inhibitory activity on the Wnt signaling pathway
Outcome measure: IC50 (µM)

compound="C=C1C(=O)[C@@]23CC[C@@H](CC2[C@@]24CCC[C@@](C)(COC2)C14)C1(CO1)C3=O (some centres unmarked)" outcome_measure=IC50 censoring_sign=> endpoint_value=60
compound="C=C1C(=O)[C@@]23CC[C@@H](CC2[C@@]24CCC[C@@](C)(COC2)C14)C(=C)C3=O (some centres unmarked)" outcome_measure=IC50 censoring_sign== endpoint_value=7.1
compound="C=C1C(=O)C23CC[C@@H](CC2[C@]2(COC(C)=O)CCC[C@@](C)(COC(C)=O)C12)C(=C)C3=O (some centres unmarked)" outcome_measure=IC50 censoring_sign== endpoint_value=7.3
compound="C=C1C(=O)C23CC[C@H]1CC2[C@]1(COC(C)=O)CCC[C@@](C)(COC(C)=O)C1[C@H](COC(C)=O)C3=O (some centres unmarked)" outcome_measure=IC50 censoring_sign=> endpoint_value=60
compound="C[C@]12CCC[C@@]3(C(=O)OC1)C1C[C@@H]4CCC1(C(=O)[C@@H]4CN1CCOCC1)[C@H](O)CC23 (some centres unmarked)" outcome_measure=IC50 censoring_sign=> endpoint_value=60
compound="C=C1C(=O)[C@]23CC[C@H]1CC2[C@@]12CCC[C@@](C)(COC1=O)C2C[C@H]3O (some centres unmarked)" outcome_measure=IC50 censoring_sign== endpoint_value=18
compound="C=C1C(=O)[C@@]23CC[C@@H](CC2[C@@]24CCC[C@@](C)(CO[C@H]2OC)C14)C(=C)C3=O (some centres unmarked)" outcome_measure=IC50 censoring_sign== endpoint_value=6.72
compound="C=C1C(=O)C23CC[C@@H](CC2[C@]2(COS(C)(=O)=O)CCC[C@@](C)(COS(C)(=O)=O)C12)C(=C)C3=O (some centres unmarked) [Compound 74a]" outcome_measure=IC50 censoring_sign== endpoint_value=11.2
compound="C=C1C(=O)[C@]23CC[C@H]1CC2[C@@]12CCC[C@@](C)(COC1=O)C2=CC3=O (some centres unmarked)" outcome_measure=IC50 censoring_sign== endpoint_value=11.1
compound="C=C1C(=O)[C@]23CC[C@H]1CC2[C@@]12CCC[C@@](C)(COC1=O)C2[C@H](Br)C3=O (some centres unmarked)" outcome_measure=IC50 censoring_sign== endpoint_value=16.5
compound="C=C1C(=O)C23CC[C@H]1CC2[C@]1(COC(C)=O)CCC[C@@](C)(COC(C)=O)C1[C@H](CN1CCOCC1)C3=O (some centres unmarked)" outcome_measure=IC50 censoring_sign== endpoint_value=56
compound="C=C1C(=O)[C@]23CC[C@H]1CC2[C@@]12CCC[C@@](C)(COC1=O)C2[C@H](SC)C3=O (some centres unmarked)" outcome_measure=IC50 censoring_sign== endpoint_value=19.8
compound="C=C1C(=O)[C@@]23CC[C@@H](CC2[C@@]24CCC[C@@](C)(COC2=O)C14)C(=C)C3=O (some centres unmarked)" outcome_measure=IC50 censoring_sign== endpoint_value=4.09
compound="C=C1C(=O)[C@]23CC[C@H]1CC2[C@@]12CCC[C@@](C)(COC1=O)C2C(CN(C)C)C3=O (some centres unmarked)" outcome_measure=IC50 censoring_sign== endpoint_value=9.54

---

- Tested on: A-549 (Human lung adenocarcinoma cells)
- Method summary: MTT inhibition of tumor cell growth, A-549
- Assay type: cell-based
- Condition parameters: Table 2, derivatives having potential Michael reaction acceptor, 48 h
Outcome measure: IC50

molecule="[NH2][Pt]([NH2])([Cl])[Cl] [cis-DDP, reference compound]" outcome_measure=IC50 endpoint_value="11.7 µM"

---

Below, each entry is listed alongside its reported IC50.
- Test system: SW-480 (human colon cancer cells)
- Method summary: MTT inhibition of tumor cell growth, SW-480
- Format: cell-based
- Condition parameters: Homo sapiens, SW480, 48 h, Table 3, single Michael reaction acceptor, modified lactonic ring, read-out: IC50 SW-480
Outcome measure: IC50 (µM)

molecule="C=C1C(=O)[C@]23CC[C@H]1CC2[C@@]12CCC[C@@](C)(COC1)C2CC3=O (stereo partly shown)" assayed_system="SW-480 (human colon cancer cells)" outcome_measure=IC50 censoring_sign== endpoint_value=2.37
molecule="C=C1C(=O)C23CC[C@H]1CC2[C@]1(C(=O)O)CCC[C@@](C)(CO)C1C[C@H]3O (stereo partly shown)" assayed_system="SW-480 (human colon cancer cells)" outcome_measure=IC50 censoring_sign=> endpoint_value=40
molecule="C=C1C(=O)[C@]23CC[C@H]1CC2[C@@]12CCC[C@@](C)(CO[C@H]1OC)C2CC3=O (stereo partly shown)" assayed_system="SW-480 (human colon cancer cells)" outcome_measure=IC50 censoring_sign== endpoint_value=2.2
molecule="C=C1C(=O)[C@]23CC[C@H]1CC2[C@@]12CCC[C@@](C)(COC1)C2C[C@H]3O (stereo partly shown)" assayed_system="SW-480 (human colon cancer cells)" outcome_measure=IC50 censoring_sign== endpoint_value=6.33
molecule="C=C1C(=O)[C@]23CC[C@H]1CC2[C@@]12CCC[C@@](C)(CO[C@H]1OC)C2C[C@H]3O (stereo partly shown)" assayed_system="SW-480 (human colon cancer cells)" outcome_measure=IC50 censoring_sign== endpoint_value=4.19
molecule="C=C1C(=O)C23CC[C@H]1CC2[C@@]12CCC[C@@](C)(C(=O)OC1=O)C2CC3=O (stereo partly shown)" assayed_system="SW-480 (human colon cancer cells)" outcome_measure=IC50 censoring_sign== endpoint_value=20.7
molecule="C=C1C(=O)C23CC[C@H]1CC2[C@@]12CCC[C@@](C)(COS(=O)OC1)C2C[C@H]3O (stereo partly shown)" assayed_system="SW-480 (human colon cancer cells)" outcome_measure=IC50 censoring_sign== endpoint_value=2.09
molecule="C=C1C(=O)C23CC[C@H]1CC2[C@@]12CCC[C@@]4(C)CO[C@@H]1O[C@@H]3CC42 (stereo partly shown)" assayed_system="SW-480 (human colon cancer cells)" outcome_measure=IC50 censoring_sign== endpoint_value=24.6
molecule="C=C1C(=O)[C@]23CC[C@H]1CC2[C@@]12CCC[C@@](C)(COC1=O)C2C[C@H]3O (stereo partly shown)" assayed_system="SW-480 (human colon cancer cells)" outcome_measure=IC50 censoring_sign== endpoint_value=3.58
molecule="CC(=O)O[C@H]1C(=O)[C@@]2(C)[C@H]([C@H](OC(=O)c3ccccc3)[C@]3(O)C[C@H](OC(=O)[C@H](O)[C@@H](NC(=O)c4ccccc4)c4ccccc4)C(C)=C1C3(C)C)[C@]1(OC(C)=O)CO[C@@H]1C[C@@H]2O [TAXOL, reference compound]" assayed_system="SW-480 (human colon cancer cells)" outcome_measure=IC50 censoring_sign=< endpoint_value=0.008
